Entries annotated with measured Bottom (best-fit)
Target desc: T1, human TIGIT over-expressed on cells (human, UniProt Q495A1 22-244)
T1 construct: also called CHO-K1/human TIGIT cells; CHO cells expressing human TIGIT
T1 sequence: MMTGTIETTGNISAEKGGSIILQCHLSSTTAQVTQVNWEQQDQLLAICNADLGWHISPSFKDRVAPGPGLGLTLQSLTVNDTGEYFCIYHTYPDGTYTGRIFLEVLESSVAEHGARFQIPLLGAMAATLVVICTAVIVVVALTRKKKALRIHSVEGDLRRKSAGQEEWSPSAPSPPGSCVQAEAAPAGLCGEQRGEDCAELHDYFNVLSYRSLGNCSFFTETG
Assay notes: FACS, CHO-K1 cells over-expressing human TIGIT
Assay readout: Bottom (best-fit)

Binder | Recorded measurement
48B5G4E12 (antibody, V domains shown, Mouse monoclonal antibody; also called mouse anti-human TIGIT monoclonal antibody 48B5G4E12) VH: QVQLQQPGAELVKPGASVKMSCKASGYTFTSYNMHWVKQTPGQGLEWIGGIYPGNGATSYNQKFKGKATLTADKSSSTAYMQLSSLTSEDSAVYYCARSGLRAMDYWGQGTSVTVSS VL: QIVLTQSPAIMSASPGEKVTMTCSASSSVSYMYWYQQKTGSSPRLLIYDTSNLASGVPVRFSGSGSGTSYSLTISRMEAEDAATYYCQQWSSYPYTFGGGTKLEIK | 9.18
8F2D8E7 (antibody, V domains shown, Mouse monoclonal antibody; also called mouse anti-human TIGIT monoclonal antibody 8F2D8E7) VH: QVQLQQSGAELVKPGASVKLSCKTSGYTFTSYWIQWIKQRPGQGLGWIGEIFPGTGTTYYNEKFKGKATLTIDTSSSTAYMQLSSLTSEDSAVYSCARSRDGKVVDYWGQGTSVTVSS VL: DVQMTQTTSSLSASLGDRVTISCRASQDISNFLNWYQQRPDGTVKLLIYYTSKLHSGVPSRFSGSGSGTDYSLTIRNLEKEDIATYFCQQGNTPPYTFGGGTKLEIK | 12.9
64G1E9B4 (antibody, V domains shown, Mouse monoclonal antibody; also called mouse anti-human TIGIT monoclonal antibody 64G1E9B4) VH: EVQLQQSGPELVKPGASVKISCKTSGYTFTEHVIHWVKQSHGKSLEWIGGFNPNHDGTIYNQIFRGKATLTVDKSSSTAYMELRSLTSEDSAVYFCTRAAKLLFAMDYWGQGTSVTVSS VL: DIVMTQSHKFMSTSIGDRVSITCKASQHVSNAVVWYQQKPGQSPKLLIYSPSYRFTGVPDRFTGSGSGTDFTFTISSVQAEDLAVYYCQQHYSTPWTFGGGTKLEIK | 15.3
